Measured values drawn from patent US11578055B2 for this set.

Give measured Liver Microsome Stability-% Left after 30 min w/ NADPH (%) Mouse for each item. Keep answers brief.
ASSAY_NAME: In Vitro Microsome Stability Assay (mouse)
Type: in vitro ADME
STUDY_CONDITIONS: mouse liver microsomes, 30 min w/ NADPH
Report as a plain number; the unit % is understood.

So for COc1ccccc1[C@@H]1CCCN(S(=O)(=O)N2CCCN(CC3CCCCC3)CCCN(S(=O)(=O)c3ccc(N(C)C)cc3)C[C@H](C)C2)C1 [A210] , the logged Liver Microsome Stability-% Left after 30 min w/ NADPH (%) Mouse turned out to be 76.0

Value of Liver Microsome Stability-% Left after 30 min w/ NADPH (%) Mouse reported for the compound C[C@H]1CCN(S(=O)(=O)N2CCc3cc(Cl)ccc3C2)CCCN(CC2CCCCC2)CCCN1S(=O)(=O)c1ccc(N(C)C)cc1 [A150] is 1.38

Please fill in: Liver Microsome Stability-% Left after 30 min w/ NADPH (%) Mouse reported for COc1cc(F)cc(N2[C@H](C)CN(S(=O)(=O)N3CCCN(CC4CCCCC4)CCCN(S(=O)(=O)c4ccc(N(C)C)cc4)C[C@H](C)C3)C[C@H]2C)c1 [A200] = 71.9

Measured Liver Microsome Stability-% Left after 30 min w/ NADPH (%) Mouse of COc1cc(F)cc(N2[C@H](C)CN(S(=O)(=O)N3CCCN(CC4CCCCC4)CCCN(S(=O)(=O)c4ccc(N(C)C)cc4)C[C@H](C)C3)C[C@@H]2C)c1 [A197] : 65.4

Record summary for COc1cc(F)ccc1N1CCN(S(=O)(=O)N2CCCN(CC3CCCCC3)CCCN(S(=O)(=O)c3ccc(N(C)C)cc3)C[C@H](C)C2)C[C@H]1C [A177] : reported Liver Microsome Stability-% Left after 30 min w/ NADPH (%) Mouse = 11.6

Entry C[C@H]1CN(S(=O)(=O)c2ccc(N(C)C)cc2)CCCN(CC2CCCCC2)CCCN(S(=O)(=O)N2CC(c3ccccc3)C2)C1 [A101] , Liver Microsome Stability-% Left after 30 min w/ NADPH (%) Mouse reported as 20.8
